Where do the numbers come from? From ChEMBL document CHEMBL4627259.

assay text: Drug metabolism in rat microsomes assessed as drug turnover at 20 uM measured after 30 mins by LCMS analysis
Assay type: ADME, Microsome
experimental conditions: read-out: Drug metabolism
readout name: metabolised at 0.5 h, 20 µM (%)
API: value field is a number in %; no unit string.

Cc1ncn(CC(F)(F)F)c1NC(=O)[C@H]1CCC[C@@H](N(C)C(=O)c2cccc(OC(F)(F)F)c2)C1 = 56
CN(C(=O)c1cccc(C(F)(F)F)c1)[C@@H]1CCC[C@H](c2nnc(-c3cnc4n3CCOC4)[nH]2)C1 = 80
Cc1ncn(CCN2CCOCC2)c1NC(=O)[C@H]1CCC[C@@H](N(C)C(=O)c2cccc(C(F)(F)F)c2)C1 = 63

What metabolised at 0.5 h, 20 µM value was documented for this molecule, "Cc1ncn(C)c1-c1nnc([C@H]2CCC[C@@H](N(C)C(=O)c3cccc(Cl)c3)C2)[nH]1" ? 55

For "Cc1nc[nH]c1-c1nnc([C@H]2CCC[C@@H](N(C)C(=O)c3cccc(C(F)(F)F)c3)C2)[nH]1" then? 36
